method-description: activity coefficient (dimensionless); of the first substance listed, at infinite dilution; xn = mol fraction of the nth substance listed
applied-conditions: 308.15 K; Liquid; Chromatography; x1 = 0
parameter: activity coefficient

Previously resolved entries follow.
[
  {
    "molecule": "C#CCCCCC [1-heptyne] + CC(CC(C)(C)C)CP(=O)([O-])CC(C)CC(C)(C)C.CCCCCCCCCCCCCC[P+](CCCCCC)(CCCCCC)CCCCCC",
    "activity coefficient": 0.35
  },
  {
    "molecule": "CCCCCCC [heptane] + CC(CC(C)(C)C)CP(=O)([O-])CC(C)CC(C)(C)C.CCCCCCCCCCCCCC[P+](CCCCCC)(CCCCCC)CCCCCC",
    "activity coefficient": 0.79
  },
  {
    "molecule": "C1CCCCC1 [cyclohexane] + CC(CC(C)(C)C)CP(=O)([O-])CC(C)CC(C)(C)C.CCCCCCCCCCCCCC[P+](CCCCCC)(CCCCCC)CCCCCC",
    "activity coefficient": 0.52
  }
]

(A) C#CCCCC [1-hexyne] + CC(CC(C)(C)C)CP(=O)([O-])CC(C)CC(C)(C)C.CCCCCCCCCCCCCC[P+](CCCCCC)(CCCCCC)CCCCCC
(B) C=CCCC [1-pentene] + CC(CC(C)(C)C)CP(=O)([O-])CC(C)CC(C)(C)C.CCCCCCCCCCCCCC[P+](CCCCCC)(CCCCCC)CCCCCC
Short answer wanted: higher activity coefficient, A or B ? Refer to your chosen item by its label in the answer.
B

----------
method-description: activity coefficient (dimensionless); of the first substance listed, at infinite dilution; xn = mol fraction of the nth substance listed
applied-conditions: 318.15 K; Liquid; Chromatography; x1 = 0
parameter: activity coefficient

(I) C1CCCCC1 [cyclohexane] + CC(CC(C)(C)C)CP(=O)([O-])CC(C)CC(C)(C)C.CCCCCCCCCCCCCC[P+](CCCCCC)(CCCCCC)CCCCCC
(II) CCCCCCCC [octane] + CC(CC(C)(C)C)CP(=O)([O-])CC(C)CC(C)(C)C.CCCCCCCCCCCCCC[P+](CCCCCC)(CCCCCC)CCCCCC
Response body: label of entry with the larger activity coefficient; valid values I , II . Indicate your choice by writing its label.
II
(II: 0.86, I: 0.56)

(A) C#CCCCCC [1-heptyne] + CC(CC(C)(C)C)CP(=O)([O-])CC(C)CC(C)(C)C.CCCCCCCCCCCCCC[P+](CCCCCC)(CCCCCC)CCCCCC
(B) CCCCCCC [heptane] + CC(CC(C)(C)C)CP(=O)([O-])CC(C)CC(C)(C)C.CCCCCCCCCCCCCC[P+](CCCCCC)(CCCCCC)CCCCCC
Between A and B , which one shows the smaller activity coefficient number? Use the label to indicate which entry you chose.
A
(A: 0.41, B: 0.83)

----------
method-description: activity coefficient (dimensionless); of the first substance listed, at infinite dilution; xn = mol fraction of the nth substance listed
applied-conditions: 303.15 K; Liquid; Chromatography; x1 = 0
parameter: activity coefficient

A selection of reference data follows.
[
  {
    "compound": "C1CCCCCC1 [cycloheptane] + CC(CC(C)(C)C)CP(=O)([O-])CC(C)CC(C)(C)C.CCCCCCCCCCCCCC[P+](CCCCCC)(CCCCCC)CCCCCC",
    "activity coefficient": 0.56
  },
  {
    "compound": "C#CCCCCCC [1-octyne] + CC(CC(C)(C)C)CP(=O)([O-])CC(C)CC(C)(C)C.CCCCCCCCCCCCCC[P+](CCCCCC)(CCCCCC)CCCCCC",
    "activity coefficient": 0.28
  },
  {
    "compound": "CCCCCC [hexane] + CC(CC(C)(C)C)CP(=O)([O-])CC(C)CC(C)(C)C.CCCCCCCCCCCCCC[P+](CCCCCC)(CCCCCC)CCCCCC",
    "activity coefficient": 0.71
  }
]

(1) c1ccccc1 [benzene] + CC(CC(C)(C)C)CP(=O)([O-])CC(C)CC(C)(C)C.CCCCCCCCCCCCCC[P+](CCCCCC)(CCCCCC)CCCCCC
(2) CCCCC [pentane] + CC(CC(C)(C)C)CP(=O)([O-])CC(C)CC(C)(C)C.CCCCCCCCCCCCCC[P+](CCCCCC)(CCCCCC)CCCCCC
Consider 1 and 2 . Which of these has its activity coefficient at a higher number? To answer, give the label that identifies your chosen option.
2
(2: 0.66, 1: 0.44)

Source of measurements: the NIST ThermoML archive (doi:10.1016/j.jct.2008.04.002)
